- target: ST3 (Homo sapiens)
- Sequence (Q11206 1-332 isoform Q11206-2): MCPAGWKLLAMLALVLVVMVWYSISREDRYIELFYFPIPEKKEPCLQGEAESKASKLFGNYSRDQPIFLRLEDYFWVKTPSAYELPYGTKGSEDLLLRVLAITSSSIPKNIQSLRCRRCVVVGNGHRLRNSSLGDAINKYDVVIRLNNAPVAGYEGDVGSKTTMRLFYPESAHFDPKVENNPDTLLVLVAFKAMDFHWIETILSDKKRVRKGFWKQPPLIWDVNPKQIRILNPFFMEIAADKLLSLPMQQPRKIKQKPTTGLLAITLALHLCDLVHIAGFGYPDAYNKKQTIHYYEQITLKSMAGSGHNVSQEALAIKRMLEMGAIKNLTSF
- experimental-details: Acceptor specificity of soluble ST3 (AZ3) in COS-1 media
- experimental-context: acceptor 0.2 mM
measurement-kind: Relative rate (%) ST3

I. CC(=O)N[C@H]1C(O)O[C@H](CO)[C@@H](O)[C@@H]1O[C@@H]1O[C@H](CO)[C@H](O)[C@H](O)[C@H]1O (stereo partly shown) [Galβ1,3GlcNAc]
II. CC(=O)N[C@H]1C(O)O[C@H](CO)[C@@H](O[C@@H]2O[C@H](CO)[C@H](O)[C@H](O)[C@H]2O)[C@@H]1O (stereo partly shown) [Galβ1,4GlcNAc]
III. CC(=O)N[C@H]1C(O)O[C@H](CO)[C@H](O)[C@@H]1O[C@@H]1O[C@H](CO)[C@H](O)[C@H](O)[C@H]1O (stereo partly shown) [Galβ1,3GalNAc]
Request: Arrange these 3 molecules in increasing order of Relative rate (%) ST3. Put the labels in the order asked and list them.
Response: I, II, III

---

- target: ST3O (Sus scrofa)
- Sequence (Q02745 28-343 limits assumed): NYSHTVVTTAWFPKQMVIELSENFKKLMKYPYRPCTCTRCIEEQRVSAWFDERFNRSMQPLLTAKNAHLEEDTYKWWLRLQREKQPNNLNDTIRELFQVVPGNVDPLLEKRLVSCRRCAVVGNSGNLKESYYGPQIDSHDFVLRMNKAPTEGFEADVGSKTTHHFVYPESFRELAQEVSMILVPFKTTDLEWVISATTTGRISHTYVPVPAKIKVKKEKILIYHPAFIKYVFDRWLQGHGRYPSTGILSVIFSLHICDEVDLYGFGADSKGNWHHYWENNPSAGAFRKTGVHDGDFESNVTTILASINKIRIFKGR
- experimental-details: Acceptor specificity of ST3O in COS-1 media
- experimental-context: acceptor 2.0 mM
measurement-kind: Relative rate (%) ST3O

[[record]]
compound = "CC(=O)N[C@H]1[C@H](O[C@H]2[C@@H](O)[C@@H](CO)O[C@@H](O[C@H]3[C@H](O)[C@@H](O)C(O)O[C@@H]3CO)[C@@H]2O)O[C@H](CO)[C@@H](O)[C@@H]1O[C@@H]1O[C@H](CO)[C@H](O)[C@H](O)[C@H]1O (stereo partly drawn)"
measurement_kind = "Relative rate (%) ST3O"
unit_annotation = "%"
meas_value = 3


I. CC(=O)N[C@H]1C(O)O[C@H](CO)[C@H](O)[C@@H]1O[C@@H]1O[C@H](CO)[C@H](O)[C@H](O)[C@H]1O (stereo partly drawn)
II. CC(=O)N[C@H]1C(O)O[C@H](CO)[C@@H](O[C@@H]2O[C@H](CO)[C@H](O)[C@H](O)[C@H]2O)[C@@H]1O (stereo partly drawn)
Request: Consider I and II . Which of these has its Relative rate (%) ST3O at a higher number? The response must carry the label of the picked entry.
Response: I
